# Test system: SK-VLB
# test protocol: Inhibitory concentration that reduced the viability of SKVLB cell population by 50%.
# Type: functional, cell-based
# condition details: Homo sapiens
pIC50: −log10 of the molar value.
Quick list: pIC50 per entry.

// field: pIC50; key: Cn1cc(NC(=O)c2cc(NC(=O)CNC(=N)N)cn2C)cc1C(=O)NCCC(=N)N ; value = < 5.00

The recorded pIC50 for entry COc1cccc2c1C(=O)c1c(O)c3c(c(O)c1C2=O)C[C@@](O)(C(=O)CO)C[C@@H]3O[C@H]1C[C@H](N)[C@H](O)[C@H](C)O1 equals 5.18

pIC50 for Cn1cc(NC(=O)c2cc(NC(=O)c3cc(NC=O)cn3C)cn2C)cc1C(=O)NCCC(=N)N is < 5.00

Form field pIC50, entry CCC1(O)C(=O)OCc2c1cc1n(c2=O)Cc2cc3cc(OCC(=O)ONc4cc(C(=O)Nc5cc(C(=O)Nc6cc(C(=O)NCCCN(C)C)n(COC)c6)n(COC)c5)n(COC)c4)ccc3nc2-1 (racemic) : < 5.00

// recorded pIC50 for CCC1(O)C(=O)OCc2c1cc1n(c2=O)Cc2cc3cc(OCC(=O)O)ccc3nc2-1 (stereo unspecified) : 5.68

pIC50 for CCCC(=O)Nc1ccc(C(=O)Nc2cc(C(=O)Nc3cc(C(=O)NCCOc4ccc5nc6c(cc5c4)Cn4c-6cc5c(c4=O)COC(=O)C5(O)CC)n(COC)c3)n(COC)c2)n1COC (racemic) is < 5.00

----------
# target system: DNA topoisomerase 1 (Homo sapiens, UniProt P11387)
# Sequence (P11387 whole entry): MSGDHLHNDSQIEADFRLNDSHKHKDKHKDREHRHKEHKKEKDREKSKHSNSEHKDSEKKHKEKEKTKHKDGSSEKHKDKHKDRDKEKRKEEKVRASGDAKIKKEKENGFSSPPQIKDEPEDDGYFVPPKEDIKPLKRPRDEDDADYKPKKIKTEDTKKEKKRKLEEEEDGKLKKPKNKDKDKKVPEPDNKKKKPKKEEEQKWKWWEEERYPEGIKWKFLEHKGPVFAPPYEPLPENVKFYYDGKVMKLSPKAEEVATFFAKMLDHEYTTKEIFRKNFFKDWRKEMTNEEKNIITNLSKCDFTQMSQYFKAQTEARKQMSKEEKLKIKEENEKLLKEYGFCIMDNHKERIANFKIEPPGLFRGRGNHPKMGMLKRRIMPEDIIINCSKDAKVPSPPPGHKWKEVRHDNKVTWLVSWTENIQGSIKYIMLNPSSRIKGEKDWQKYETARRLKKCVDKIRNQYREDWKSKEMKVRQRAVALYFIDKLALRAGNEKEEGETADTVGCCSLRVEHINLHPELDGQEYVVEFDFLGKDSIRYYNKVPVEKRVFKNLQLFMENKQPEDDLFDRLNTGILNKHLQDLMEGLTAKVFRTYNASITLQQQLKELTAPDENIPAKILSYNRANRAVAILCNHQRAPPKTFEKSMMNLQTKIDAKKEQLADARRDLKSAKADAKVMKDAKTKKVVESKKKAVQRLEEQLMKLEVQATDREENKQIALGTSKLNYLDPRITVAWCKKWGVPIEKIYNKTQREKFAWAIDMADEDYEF
pIC50: −log10 of the molar value.
Response key: true means pIC50 >= 5; false means pIC50 < 5.

CCCC(=O)Nc1cn(COC)c(C(=O)NCCOc2ccc3nc4c(cc3c2)Cn2c-4cc3c(c2=O)COC(=O)C3(O)CC)n1 (stereo not given) ... true
Cn1cc(NC(=O)c2cc(NC(=O)c3cc(NC=O)cn3C)cn2C)cc1C(=O)NCCC(=N)N ... true
Cn1cc(NC(=O)c2cc(NC(=O)CNC(=N)N)cn2C)cc1C(=O)NCCC(=N)N ... false
CCC1(O)C(=O)OCc2c1cc1n(c2=O)Cc2cc3cc(OCCNC(=O)c4cc(NC(=O)c5cc(NC(=O)c6ccc(NC(=O)CCCN(C)C)n6COC)cn5COC)cn4COC)ccc3nc2-1 (racemic) ... true
CCCC(=O)Nc1cn(COC)c(C(=O)Nc2cn(COC)c(C(=O)NCCOc3ccc4nc5c(cc4c3)Cn3c-5cc4c(c3=O)COC(=O)C4(O)CC)n2)n1 (racemic) ... true
CCC1(O)C(=O)OCc2c1cc1n(c2=O)Cc2cc3cc(OCCNC(=O)c4cc(NC(=O)CCCN(C)C)cn4COC)ccc3nc2-1 (stereo not given) ... true
CCC1(O)C(=O)OCc2c1cc1n(c2=O)Cc2cc3cc(OCCNC(=O)c4cc(NC(=O)c5cc(NC(=O)CCCN(C)C)cn5COC)cn4COC)ccc3nc2-1 (racemic) ... true
CCCC(=O)Nc1cc(C(=O)Nc2cc(C(=O)NCCOc3ccc4nc5c(cc4c3)Cn3c-5cc4c(c3=O)COC(=O)C4(O)CC)n(COC)c2)n(COC)c1 (racemic) ... false

Now, please, on to the next compound.
Prompt line: Could you tell me if the measured pIC50 of CCC1(O)C(=O)OCc2c1cc1n(c2=O)Cc2cc3cc(OCC(=O)O)ccc3nc2-1 (stereo not given) reaches 5 or more?
Response line: true

----------
# Tested on: SK-VLB
# test protocol: Inhibitory concentration that reduced the viability of SKVLB cell population by 50%.
# Assay type: functional, cell-based
# condition details: Homo sapiens
pIC50: −log10 of the molar value.
Recorded pIC50 for the following compounds

CCC1(O)C(=O)OCc2c1cc1n(c2=O)Cc2cc3ccccc3nc2-1 (single isomer, unassigned) ... 7.28
CCCC(=O)Nc1cc(C(=O)NCCOc2ccc3nc4c(cc3c2)Cn2c-4cc3c(c2=O)COC(=O)C3(O)CC)n(COC)c1 (stereo not drawn) ... < 5.00

Consider the additional compound presented here.
Memo: CCC1(O)C(=O)OCc2c1cc1n(c2=O)Cc2cc3cc(OCC(=O)ONc4cc(C(=O)Nc5cc(C(=O)NCCCN(C)C)n(COC)c5)n(COC)c4)ccc3nc2-1 (racemic) , reported pIC50: < 5.00

----------
# System: KB
# test protocol: Inhibitory concentration that reduced the viability of KB cell population by 50%.
# Format: functional, cell-based
# condition details: Homo sapiens
readout label: IC50
# output: numeric value plus its unit

Completed entries (count: 2):
CCC1(O)C(=O)OCc2c1cc1n(c2=O)Cc2cc3ccccc3nc2-1 (single isomer, unassigned) ... 0.008 µM
CCC1(O)C(=O)OCc2c1cc1n(c2=O)Cc2cc3cc(OCCNC(=O)c4cc(NC(=O)CCCN(C)C)cn4COC)ccc3nc2-1 (configuration not stated) ... 5.68 µM

The value of IC50 recorded for CCC1(O)C(=O)OCc2c1cc1n(c2=O)Cc2cc3cc(OCCN)ccc3nc2-1 (configuration not stated) when tested on KB reads 0.175 µM

----------
Items are presented alongside their recorded pIC50.
# Test system: KB
# test protocol: Inhibitory concentration that reduced the viability of KB cell population by 50%.
# Type: functional, cell-based
# condition details: Homo sapiens
Value format note: pIC50 is -log10 of concentration (mol/L); just state the number.

CCC1(O)C(=O)OCc2c1cc1n(c2=O)Cc2cc3cc(OCCNC(=O)c4cc(NC(=O)c5cc(NC(=O)CCCN(C)C)cn5COC)cn4COC)ccc3nc2-1 (racemic) ... 5.20
CCC1(O)C(=O)OCc2c1cc1n(c2=O)Cc2cc3cc(OCC(=O)O)ccc3nc2-1 (centres undefined) ... 6.60
CCCC(=O)Nc1cn(COC)c(C(=O)NCCOc2ccc3nc4c(cc3c2)Cn2c-4cc3c(c2=O)COC(=O)C3(O)CC)n1 (centres undefined) ... 6.00

Okay, next one:
// recorded pIC50 for Cn1cc(NC(=O)c2cc(NC(=O)CNC(=N)N)cn2C)cc1C(=O)NCCC(=N)N : 4.33

The values you see were collected from ChEMBL document CHEMBL1130394.
